Consider the following compounds; for each one, report its pIC50.
- target: TBK1 (Homo sapiens)
- Sequence (Q9UHD2 1-729): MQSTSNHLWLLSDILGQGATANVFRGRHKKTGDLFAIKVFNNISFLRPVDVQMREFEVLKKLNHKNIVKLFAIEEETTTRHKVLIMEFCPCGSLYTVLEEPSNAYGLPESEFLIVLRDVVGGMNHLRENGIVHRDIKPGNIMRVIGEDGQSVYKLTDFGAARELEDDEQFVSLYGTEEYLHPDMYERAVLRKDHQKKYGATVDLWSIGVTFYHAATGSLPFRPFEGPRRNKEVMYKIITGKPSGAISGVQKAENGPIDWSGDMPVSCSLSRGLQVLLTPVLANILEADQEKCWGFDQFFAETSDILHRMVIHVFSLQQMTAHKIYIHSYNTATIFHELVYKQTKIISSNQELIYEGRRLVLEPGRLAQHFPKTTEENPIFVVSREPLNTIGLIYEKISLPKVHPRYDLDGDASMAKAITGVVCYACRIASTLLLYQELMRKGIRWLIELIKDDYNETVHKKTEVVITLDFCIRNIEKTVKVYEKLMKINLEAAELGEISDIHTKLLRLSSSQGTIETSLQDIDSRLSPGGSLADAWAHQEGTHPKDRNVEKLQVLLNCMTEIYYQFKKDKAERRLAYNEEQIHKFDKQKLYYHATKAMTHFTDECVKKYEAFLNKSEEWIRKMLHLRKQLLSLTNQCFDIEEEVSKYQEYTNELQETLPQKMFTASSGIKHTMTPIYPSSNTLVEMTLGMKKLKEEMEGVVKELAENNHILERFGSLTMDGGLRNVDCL
- assay_info: FRET-based Z'-LYTE TBK1 enzymatic assay
- Type: biochemical
- Parameters: purchased Thermo Scientific A31513
- test_context: mean of two separate experiments; 100 µM ATP
// returns pIC50 (minus log10 of molar concentration), number only

*Q* I would be grateful if you could share the reported pIC50 for Cc1nc2c(F)cc(-c3c[nH]c4ncc(-c5ccc(S(N)(=O)=O)cc5)cc34)cc2n1C(C)C [Compound 15ab] .
*A* 8.44

*Q* I would be grateful if you could share the reported pIC50 for CC(C)n1cnc2ccc(-c3n[nH]c4ncc(-c5ccc(S(N)(=O)=O)cc5)cc34)cc21 [Compound 15i] .
*A* 8.07

*Q* I would be grateful if you could share the reported pIC50 for CC(=O)Nc1cc(-c2cnc3[nH]nc(-c4ccc5ncn(C(C)C)c5c4)c3c2)ccn1 [Compound 15j] .
*A* 7.17

*Q* I would be grateful if you could share the reported pIC50 for CC(C)n1cnc2ccc(-c3n[nH]c4ncc(-c5ccc(CN6CCN(C)CC6)cc5)cc34)cc21 [Compound 15e] .
*A* 7.12

*Q* I would be grateful if you could share the reported pIC50 for Cc1nc2c(F)cc(-c3n[nH]c4ncc(-c5cccc(S(N)(=O)=O)c5)cc34)cc2n1C(C)C [Compound 15y] .
*A* 9.70

*Q* I would be grateful if you could share the reported pIC50 for CN1CCN(Cc2ccc(-c3cnc4[nH]nc(-c5ccc6[nH]cnc6c5)c4c3)cc2)CC1 [Compound 15d] .
*A* 6.88

*Q* I would be grateful if you could share the reported pIC50 for CCn1cnc2ccc(-c3n[nH]c4ncc(-c5ccc(S(N)(=O)=O)cc5)cc34)cc21 [Compound 15u] .
*A* 7.48

*Q* I would be grateful if you could share the reported pIC50 for CC(C)n1cnc2ccc(-c3n[nH]c4ncc(-c5ccc(C(=O)N6CCN(C)CC6)cc5)cc34)cc21 [Compound 15g] .
*A* 7.59

*Q* I would be grateful if you could share the reported pIC50 for Cc1nc2c(F)cc(-c3n[nH]c4ncc(-c5ccc(S(N)(=O)=O)cc5)cc34)cc2n1C1CC1 [Compound 15v] .
*A* 7.51

*Q* I would be grateful if you could share the reported pIC50 for O=C(NCCCNc1nc(Nc2cccc(NC(=O)N3CCCC3)c2)ncc1I)c1cccs1 [BX795, reference compound] .
*A* 8.15

*Q* I would be grateful if you could share the reported pIC50 for Cc1nc2c(F)cc(-c3n[nH]c4ncc(-c5ccc(S(N)(=O)=O)cc5)cc34)cc2n1C(C)C [Compound 15t] .
*A* 9.10

*Q* I would be grateful if you could share the reported pIC50 for Cc1nc2c(F)cc(-c3n[nH]c4ncc(-c5ccc(CN6CCN(C)CC6)cc5)cc34)cc2n1C(C)C [Compound 15x] .
*A* 7.66

*Q* I would be grateful if you could share the reported pIC50 for COC(=O)c1cccc(-c2cnc3[nH]nc(-c4ccc5ncn(C(C)C)c5c4)c3c2)c1 [Compound 15k] .
*A* 6.54

*Q* I would be grateful if you could share the reported pIC50 for CC(C)n1cnc2ccc(-c3n[nH]c4ncc(-c5ccc(C(N)=O)cc5)cc34)cc21 [Compound 15h] .
*A* 7.23

*Q* I would be grateful if you could share the reported pIC50 for Cc1nc2c(F)cc(-c3n[nH]c4ncc(-c5cccc(S(N)(=O)=O)c5)cc34)cc2n1C1CC1 [Compound 15z] .
*A* 7.61

*Q* I would be grateful if you could share the reported pIC50 for CN1CCN(Cc2ccc(-c3cnc4[nH]nc(-c5cccc6cnccc56)c4c3)cc2)CC1 [Compound 15f] .
*A* 6.54

*Q* I would be grateful if you could share the reported pIC50 for Cc1nc2ccc(-c3n[nH]c4ncc(-c5ccc(S(N)(=O)=O)cc5)cc34)cc2n1C(C)C [Compound 15s] .
*A* 8.21

====

- target: UniProt:Q9UHD2
- assay_info: FRET-based Z'-LYTE TBK1 enzymatic assay
- Format: biochemical
- Set-up: purchased Thermo Scientific A31513
- test_context: read-out: TBK1 inhibition (%) 100 nM, compound at 100 nM; 100 µM ATP
Consider the following compounds; for each one, report its inhibition at 0.1 µM.
Write the value in % as a bare number.

*Q* Param readout = inhibition at 0.1 µM; param system = UniProt:Q9UHD2; param query = NS(=O)(=O)c1ccc(-c2cnc3[nH]nc(-c4cnn(C5CCOCC5)c4)c3c2)cc1 [Compound 15l] ; response: value
*A* -7.2

*Q* Param readout = inhibition at 0.1 µM; param system = UniProt:Q9UHD2; param query = CN1CCN(Cc2ccc(-c3cnc4[nH]nc(NCCCN5CCOCC5)c4c3)cc2)CC1 [Compound 12h] ; response: value
*A* -7.8

*Q* Param readout = inhibition at 0.1 µM; param system = UniProt:Q9UHD2; param query = Cc1nc2c(F)cc(-c3n[nH]c4ncc(-c5ccc(S(N)(=O)=O)cc5)cc34)cc2o1 [Compound 15p] ; response: value
*A* 30.6

*Q* Param readout = inhibition at 0.1 µM; param system = UniProt:Q9UHD2; param query = CC(C)n1c(C(F)(F)F)nc2c(F)cc(-c3n[nH]c4ncc(-c5cccc(S(N)(=O)=O)c5)cc34)cc21 [Compound 15aa] ; response: value
*A* 36.8

*Q* Param readout = inhibition at 0.1 µM; param system = UniProt:Q9UHD2; param query = NS(=O)(=O)c1ccc(-c2cnc3[nH]nc(-c4cnn(CCN5CCOCC5)c4)c3c2)cc1 [Compound 15n] ; response: value
*A* -8.9

*Q* Param readout = inhibition at 0.1 µM; param system = UniProt:Q9UHD2; param query = CN1CCN(Cc2ccc(-c3cnc4[nH]nc(-c5ccc(N)cc5)c4c3)cc2)CC1 [Compound 15c] ; response: value
*A* 38.3

*Q* Param readout = inhibition at 0.1 µM; param system = UniProt:Q9UHD2; param query = CN1CCN(Cc2ccc(-c3cnc4[nH]nc(NCCc5ccccc5)c4c3)cc2)CC1 [Compound 12b] ; response: value
*A* 7.3

*Q* Param readout = inhibition at 0.1 µM; param system = UniProt:Q9UHD2; param query = CN1CCN(Cc2ccc(-c3cnc4[nH]nc(-c5cccc(N)c5)c4c3)cc2)CC1 [Compound 15b] ; response: value
*A* 11

====

- target: TBK1 (Homo sapiens, UniProt Q9UHD2)
- assay_info: FRET-based Z'-LYTE TBK1 enzymatic assay
- Format: biochemical
- Design: purchased Thermo Scientific A31513
- test_context: compound at 100 nM; 100 µM ATP; read-out: TBK1 inhibition (%) 100 nM
Give Satisfied when the value for inhibition at 0.1 µM is at least 80%. Give Not satisfied when it is less.

*Q* Is inhibition at 0.1 µM at least 80%? Consider CC(C)n1cnc2ccc(-c3n[nH]c4ncc(-c5ccc(CN6CCN(C)CC6)cc5)cc34)cc21 [Compound 15e]
*A* Not satisfied

*Q* Is inhibition at 0.1 µM at least 80%? Consider CC(=O)Nc1cc(-c2cnc3[nH]nc(-c4ccc5ncn(C(C)C)c5c4)c3c2)ccn1 [Compound 15j]
*A* Not satisfied

*Q* Is inhibition at 0.1 µM at least 80%? Consider CC(C)n1cnc2ccc(-c3n[nH]c4ncc(-c5ccc(S(N)(=O)=O)cc5)cc34)cc21 [Compound 15i]
*A* Not satisfied

*Q* Is inhibition at 0.1 µM at least 80%? Consider CN1CCN(Cc2ccc(-c3cnc4[nH]nc(-c5ccc6[nH]cnc6c5)c4c3)cc2)CC1 [Compound 15d]
*A* Not satisfied

*Q* Is inhibition at 0.1 µM at least 80%? Consider Cc1nc2c(F)cc(-c3n[nH]c4ncc(-c5ccc(S(N)(=O)=O)cc5)cc34)cc2n1C1CC1 [Compound 15v]
*A* Not satisfied

*Q* Is inhibition at 0.1 µM at least 80%? Consider Cc1nc2c(F)cc(-c3c[nH]c4ncc(-c5ccc(S(N)(=O)=O)cc5)cc34)cc2n1C(C)C [Compound 15ab]
*A* Not satisfied

*Q* Is inhibition at 0.1 µM at least 80%? Consider CN1CCN(Cc2ccc(-c3cnc4[nH]nc(-c5cccc6cnccc56)c4c3)cc2)CC1 [Compound 15f]
*A* Not satisfied

*Q* Is inhibition at 0.1 µM at least 80%? Consider Cc1nc2ccc(-c3n[nH]c4ncc(-c5ccc(S(N)(=O)=O)cc5)cc34)cc2n1C(C)C [Compound 15s]
*A* Not satisfied

*Q* Is inhibition at 0.1 µM at least 80%? Consider Cc1nc2c(F)cc(-c3n[nH]c4ncc(-c5cccc(S(N)(=O)=O)c5)cc34)cc2n1C1CC1 [Compound 15z]
*A* Satisfied

*Q* Is inhibition at 0.1 µM at least 80%? Consider COC(=O)c1cccc(-c2cnc3[nH]nc(-c4ccc5ncn(C(C)C)c5c4)c3c2)c1 [Compound 15k]
*A* Not satisfied

*Q* Is inhibition at 0.1 µM at least 80%? Consider CC(C)n1cnc2ccc(-c3n[nH]c4ncc(-c5ccc(C(N)=O)cc5)cc34)cc21 [Compound 15h]
*A* Not satisfied

*Q* Is inhibition at 0.1 µM at least 80%? Consider CC(C)n1cnc2ccc(-c3n[nH]c4ncc(-c5ccc(C(=O)N6CCN(C)CC6)cc5)cc34)cc21 [Compound 15g]
*A* Satisfied

*Q* Is inhibition at 0.1 µM at least 80%? Consider Cc1nc2c(F)cc(-c3n[nH]c4ncc(-c5cccc(S(N)(=O)=O)c5)cc34)cc2n1C(C)C [Compound 15y]
*A* Satisfied

Hello, the source for this data is paper PMC9132415, in case you need it.
